target: rat TRPA1 channel (Rattus norvegicus, UniProt Q6RI86); experiment: TRPA1 desensitization/inhibition of AITC-induced [Ca2+]i elevation in TRPA1-HEK-293 cells; conditions: 5-min preincubation, against AITC 100 μM
Sequence (Q6RI86 whole entry): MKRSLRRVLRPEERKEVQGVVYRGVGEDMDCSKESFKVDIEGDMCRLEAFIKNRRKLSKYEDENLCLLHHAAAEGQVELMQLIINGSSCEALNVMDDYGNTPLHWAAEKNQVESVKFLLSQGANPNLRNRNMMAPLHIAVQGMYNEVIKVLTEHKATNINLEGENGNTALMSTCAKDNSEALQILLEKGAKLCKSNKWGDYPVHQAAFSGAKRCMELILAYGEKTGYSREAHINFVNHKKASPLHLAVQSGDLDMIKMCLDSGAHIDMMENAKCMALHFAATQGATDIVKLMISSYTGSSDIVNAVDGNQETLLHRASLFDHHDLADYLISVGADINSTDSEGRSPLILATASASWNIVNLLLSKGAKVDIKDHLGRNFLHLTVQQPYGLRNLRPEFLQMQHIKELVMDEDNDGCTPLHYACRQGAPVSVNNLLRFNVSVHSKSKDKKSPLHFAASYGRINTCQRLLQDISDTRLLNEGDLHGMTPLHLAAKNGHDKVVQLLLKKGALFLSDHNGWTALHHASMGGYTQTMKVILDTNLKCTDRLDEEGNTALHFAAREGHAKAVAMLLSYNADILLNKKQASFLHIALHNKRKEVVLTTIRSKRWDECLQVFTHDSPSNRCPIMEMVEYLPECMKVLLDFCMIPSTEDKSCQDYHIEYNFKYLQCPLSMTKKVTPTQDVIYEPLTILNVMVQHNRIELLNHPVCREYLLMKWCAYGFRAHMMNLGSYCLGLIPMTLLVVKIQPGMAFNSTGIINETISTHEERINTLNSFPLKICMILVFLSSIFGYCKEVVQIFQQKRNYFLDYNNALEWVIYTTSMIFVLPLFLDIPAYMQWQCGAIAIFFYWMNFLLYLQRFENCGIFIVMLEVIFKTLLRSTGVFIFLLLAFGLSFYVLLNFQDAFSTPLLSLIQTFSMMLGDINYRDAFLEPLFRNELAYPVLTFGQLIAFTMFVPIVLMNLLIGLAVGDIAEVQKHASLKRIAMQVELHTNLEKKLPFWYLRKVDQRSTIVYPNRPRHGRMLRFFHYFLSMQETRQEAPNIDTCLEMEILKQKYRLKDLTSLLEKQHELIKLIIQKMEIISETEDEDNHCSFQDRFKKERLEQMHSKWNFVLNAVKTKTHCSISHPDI
Assay Endpoint: pIC50
Convention used: pIC50 is expressed as -log10 of the molar concentration.

Worked set:
C[C@@H](N)[C@@H](O)C/C=C\C/C=C\C/C=C\C/C=C\C/C=C\C/C=C\CCCCCC[C@H](O)[C@@H](C)N :: 5.33
C[C@@H](N)[C@@H](O)CCCCCCCCCCCCCCCCCCCCCCCC[C@H](O)[C@@H](C)N :: 5.19
CC(=O)N[C@H](C)[C@H](CCCCCCCCCCCCCCCCCCCCCCCC[C@H](OC(C)=O)[C@@H](C)NC(C)=O)OC(C)=O :: 4.90

Now consider a different compound.
Query: pIC50; subject: C[C@@H](N)[C@@H](O)C/C=C\CC(O)/C=C/C=C\C/C=C\C/C=C\C/C=C\CCCCCC[C@H](O)[C@@H](C)N (stereo partly shown) 5.33

---

target: rat TRPA1 channel (Rattus norvegicus, UniProt Q6RI86); construct: expressed in transfected cells; host or cells: HEK-293; assay: TRPA1 activation, fluorometric intracellular [Ca2+]i in TRPA1-HEK293 cells; assay type: cell-based; conditions: rat TRPA1-HEK293 cells
Measured Efficacy TRPA1 (% AITC 100 μM), listed per entry for reference.
Please make sure the unit comes right after the number.

Worked set:
CC(=O)N[C@H](C)[C@H](CCCCCCCCCCCCCCCCCCCCCCCC[C@H](OC(C)=O)[C@@H](C)NC(C)=O)OC(C)=O :: 100.0 ± 9.7 % AITC 100 μM
C[C@@H](N)[C@@H](O)C/C=C\CC(O)/C=C/C=C\C/C=C\C/C=C\C/C=C\CCCCCC[C@H](O)[C@@H](C)N (stereo partly shown) :: 103.3 ± 10.6 % AITC 100 μM
C[C@@H](N)[C@@H](O)CCCCCCCCCCCCCCCCCCCCCCCC[C@H](O)[C@@H](C)N :: 69.2 ± 0.1 % AITC 100 μM

Now consider a different compound.
Query: Efficacy TRPA1 (% AITC 100 μM); subject: C[C@@H](N)[C@@H](O)C/C=C\C/C=C\C/C=C\C/C=C\C/C=C\C/C=C\CCCCCC[C@H](O)[C@@H](C)N 101.9 ± 12.4 % AITC 100 μM

---

Measured IC50, listed per entry for reference.
biological target: rat TRPM8 channel (Rattus norvegicus, UniProt Q8R455); assay: Inhibition of icilin-induced [Ca2+]i elevation in TRPM8-HEK-293 cells; conditions: 5-min preincubation, against icilin 0.25 μM
Sequence (Q8R455 whole entry): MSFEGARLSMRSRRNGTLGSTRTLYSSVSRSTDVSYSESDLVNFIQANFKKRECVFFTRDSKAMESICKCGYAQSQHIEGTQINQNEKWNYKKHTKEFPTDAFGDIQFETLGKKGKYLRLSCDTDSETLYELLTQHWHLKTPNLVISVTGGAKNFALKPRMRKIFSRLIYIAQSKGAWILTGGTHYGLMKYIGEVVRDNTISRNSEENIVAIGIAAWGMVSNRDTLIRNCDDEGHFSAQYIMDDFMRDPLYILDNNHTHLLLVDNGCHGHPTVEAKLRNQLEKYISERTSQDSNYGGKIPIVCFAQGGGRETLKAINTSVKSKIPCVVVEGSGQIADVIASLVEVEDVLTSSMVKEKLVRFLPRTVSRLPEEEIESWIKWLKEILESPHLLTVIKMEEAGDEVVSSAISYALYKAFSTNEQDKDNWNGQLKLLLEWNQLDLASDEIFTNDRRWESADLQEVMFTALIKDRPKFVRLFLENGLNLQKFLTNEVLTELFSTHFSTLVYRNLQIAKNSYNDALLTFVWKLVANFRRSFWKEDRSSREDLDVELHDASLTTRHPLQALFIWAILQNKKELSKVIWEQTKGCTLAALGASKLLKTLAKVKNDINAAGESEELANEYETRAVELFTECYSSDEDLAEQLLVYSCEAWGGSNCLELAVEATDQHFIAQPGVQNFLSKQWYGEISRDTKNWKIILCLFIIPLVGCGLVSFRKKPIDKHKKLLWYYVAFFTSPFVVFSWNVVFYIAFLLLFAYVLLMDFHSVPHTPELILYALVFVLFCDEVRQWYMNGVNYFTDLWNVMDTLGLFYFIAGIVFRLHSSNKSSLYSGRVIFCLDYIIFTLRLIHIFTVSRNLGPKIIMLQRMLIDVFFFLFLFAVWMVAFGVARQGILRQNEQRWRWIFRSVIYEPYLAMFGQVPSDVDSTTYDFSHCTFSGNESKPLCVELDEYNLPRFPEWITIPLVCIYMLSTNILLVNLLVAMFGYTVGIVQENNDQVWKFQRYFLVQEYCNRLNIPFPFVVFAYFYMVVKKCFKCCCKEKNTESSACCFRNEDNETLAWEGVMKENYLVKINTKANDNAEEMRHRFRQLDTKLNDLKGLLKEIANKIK

Enter reported IC50 observed with rat TRPM8 channel (Rattus norvegicus, UniProt Q8R455) for CC(=O)N[C@H](C)[C@H](C/C=C\C/C=C\C/C=C\C/C=C\C/C=C\C/C=C\CCCCCC[C@H](OC(C)=O)[C@@H](C)NC(C)=O)OC(C)=O 44.6 µM

Enter reported IC50 observed with rat TRPM8 channel (Rattus norvegicus, UniProt Q8R455) for C[C@@H](N)[C@@H](O)CCCCCCCCCCCCCCCCCCCCCCCC[C@H](O)[C@@H](C)N 6.5 µM

Enter reported IC50 observed with rat TRPM8 channel (Rattus norvegicus, UniProt Q8R455) for CC(=O)N[C@H](C)[C@H](CCCCCCCCCCCCCCCCCCCCCCCC[C@H](OC(C)=O)[C@@H](C)NC(C)=O)OC(C)=O 29 µM

---

target: rat TRPM8 channel (Rattus norvegicus); experiment: Inhibition of icilin-induced [Ca2+]i elevation in TRPM8-HEK-293 cells; details: 5-min preincubation, against icilin 0.25 μM
Assay Endpoint: pIC50
Convention used: pIC50 is expressed as -log10 of the molar concentration.

Worked set:
C[C@@H](N)[C@@H](O)C/C=C\C/C=C\C/C=C\C/C=C\C/C=C\C/C=C\CCCCCC[C@H](O)[C@@H](C)N :: 5.19
CC(=O)N[C@H](C)[C@H](C/C=C\CC(/C=C/C=C\C/C=C\C/C=C\C/C=C\CCCCCC[C@H](OC(C)=O)[C@@H](C)NC(C)=O)OC(C)=O)OC(C)=O (stereo partly drawn) :: 4.18

Now consider a different molecule.
Query: pIC50; subject: C[C@@H](N)[C@@H](O)C/C=C\CC(O)/C=C/C=C\C/C=C\C/C=C\C/C=C\CCCCCC[C@H](O)[C@@H](C)N (stereo partly drawn) 5.19

---

Measured EC50, listed per entry for reference.
molecular target: UniProt:Q6RI86; assay: TRPA1 activation, fluorometric intracellular [Ca2+]i in TRPA1-HEK293 cells; conditions: rat TRPA1-HEK293 cells; read-out: Potency EC50 TRPA1
Please make sure the unit comes right after the number.

Worked set:
CC(=O)N[C@H](C)[C@H](CCCCCCCCCCCCCCCCCCCCCCCC[C@H](OC(C)=O)[C@@H](C)NC(C)=O)OC(C)=O [Compound 6] :: 9.7 µM
C[C@@H](N)[C@@H](O)CCCCCCCCCCCCCCCCCCCCCCCC[C@H](O)[C@@H](C)N [Compound 5] :: 2.6 µM
C[C@@H](N)[C@@H](O)C/C=C\C/C=C\C/C=C\C/C=C\C/C=C\C/C=C\CCCCCC[C@H](O)[C@@H](C)N [Leucettamol A (1), leucettamol A] :: 3.7 µM

Query: EC50; subject: C[C@@H](N)[C@@H](O)C/C=C\CC(O)/C=C/C=C\C/C=C\C/C=C\C/C=C\CCCCCC[C@H](O)[C@@H](C)N (stereo partly shown) [Leucettamol B (3), leucettamol B] 5.9 µM
